Exercise: for every item that follows, state its recorded T/C.
Tested on: BDF1 mice, P388 leukemia ip, median survival T/C
test_description: NCI In Vivo Anticancer Drug Screen. Data for tumor model P388 Leukemia (intraperitoneal) in B6D2F1 (BDF1) mice
setup_conditions: endpoint: median survival time; dose: 400.0 mg/kg/injection; schedule: Q04DX003 (ip); vehicle: saline sonified; higher = longer survival
Toxic doses and inconclusive results are not listed.

>  <molecule>
[O-][n+]1onc2c(-c3ccccc3)nnc(-c3ccccc3)c21

>  <experimental_result>
100 % of control

$$$$
>  <molecule>
O=C(O)CC/C(=N/OCc1cc2c(cc1Cl)OCO2)C(=O)O

>  <experimental_result>
109 % of control

$$$$
>  <molecule>
COC(=O)c1ccc(OCCOc2ccc(C(C)(C)CC(C)(C)C)cc2)c([N+](=O)[O-])c1

>  <experimental_result>
86 % of control

$$$$
>  <molecule>
Cc1ccc2c(c1)Sc1ccc3ccccc3c1N2

>  <experimental_result>
100 % of control

$$$$

I have 3 molecules here; please give me T/C for each one.
1. ClC(Cl)(Cl)C(Cl)(Cl)c1ccc(C(Cl)(Cl)C(Cl)(Cl)Cl)cc1
2. COc1cc(Cc2nccc3cc(OC)c(OC)cc23)c([N+](=O)[O-])cc1OC
3. CC(=O)c1ccccc1OS(=O)(=O)c1ccc([N+](=O)[O-])cc1

OUT:
1. 95 % of control
2. 90 % of control
3. 100 % of control

I have 2 molecules here; please give me T/C for each one.
1. CC(=O)NC(O)C(Cl)(Cl)Cl (centres undefined)
2. NC(=O)SCC(=O)Nc1ccc2ncccc2c1

OUT:
1. 100 % of control
2. 100 % of control
